Below, each entry is listed with its recorded viability at 8 h, 64 µM.
# ASSAY DETAILS: Cytotoxicity against human HEK-293T cells assessed as cell survival rate at 64 uM measured after 8 hrs by MTT assay relative to control
# Assay type: toxicity, cell-based
# STUDY CONDITIONS: read-out: Activity
ENDPOINT: viability at 8 h, 64 µM

• H-GKLWLKGGKLWLKGGKLWLKA-NH2 = > 80%
• H-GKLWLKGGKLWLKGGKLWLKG-NH2 = > 80%
• H-GKLWLKGGKLWLKAGKLWLKG-NH2 = > 80%
• H-GKLWLKGAKLWLKGGKLWLKG-NH2 = < 50%
• H-GKLWLKGGKLWLKGAKLWLKG-NH2 = > 80%
• H-GKLWLKAGKLWLKGGKLWLKG-NH2 = > 80%

Hey, just so you know, these numbers are from ChEMBL document CHEMBL5518215.
